From: ChEMBL document CHEMBL2380247

Let's look at some molecules and their measured growth, % of control at 1 µM.
- Test system: NUGC-3
- Protocol notes: Antiproliferative activity against human NUGC3 cells at 1 uM by SRB assay
- Type: functional
Reply with just the number (in %).

Consider the following illustrative entries.
                           substance_smiles                endpoint_label  test_value
0  CCCCCCCCCCCCCCCCCC(=O)NCC(C)(C)C[N+](C)(C)CC  growth, % of control at 1 µM        52.5
1         CCCCCCCCCCCCCC(=O)NCCC[N+](C)(C)C  growth, % of control at 1 µM        46.7
2  C=CC[N+](C)(C)CCCN(C)C(=O)CCCCCCCCCCCCCCC  growth, % of control at 1 µM        28.1
3     CCCCCCCCCCCCCCCCCC(=O)NCCC[N+](C)(C)C  growth, % of control at 1 µM        63.8
4    CCCCCCCCCCCCCCCC(=O)N(C)CC[N+](C)(C)CC  growth, % of control at 1 µM        38.2

The record that follows has no growth, % of control at 1 µM shown yet.
### Prompt Return growth, % of control at 1 µM (reported value) for this molecule: CCCCCCCCCCCCCC(=O)N(C)CCC[N+](C)(C)C
### Response 35.7

====

Let's look at some molecules and their measured growth, % of control at 1 µM.
- Test system: NUGC-3
- Protocol notes: Antiproliferative activity against human NUGC3 cells at 1 uM by SRB assay
- Format: functional
Reply with just the number (in %).

Consider the following illustrative entries.
>>> df
                           substance_smiles  test_value
0   C=CC[N+](C)(C)CCCN(C)C(=O)CCCCCCCCCCCCC        32.1
1  CCCCCCCCCCCCCCCC(=O)N(C)CC[N+](CC)(CC)CC       -14.6
2  CCCCCCCCCCCCCCCC(=O)NCC(C)(C)C[N+](C)(C)CC        38.1
3  C=CC[N+](CC)(CC)CCN(C)C(=O)CCCCCCCCCCCCC         1.1
4   CCCCCCCCCCCCCCCC(=O)N(C)CCC[N+](C)(C)CC        7.32

### Prompt Return growth, % of control at 1 µM (reported value) for this molecule: CCCCCCCCCCCCCCCCCC(=O)NCC(C)(C)C[N+](C)(C)Cc1ccccc1
### Response 82

### Prompt Return growth, % of control at 1 µM (reported value) for this molecule: CCCCCCCCCCCCCC(=O)NCC(C)(C)C[N+](C)(C)C
### Response 84.7

### Prompt Return growth, % of control at 1 µM (reported value) for this molecule: CCCCCCCCCCCCCCCC(=O)N(C)CC[N+](CC)(CC)Cc1ccccc1
### Response 31.4

### Prompt Return growth, % of control at 1 µM (reported value) for this molecule: CCCCCCCCCCCCCC(=O)N(C)CC[N+](C)(C)C
### Response 22.5

### Prompt Return growth, % of control at 1 µM (reported value) for this molecule: CCCCCCCCCCCCCCCCCC(=O)N(C)CC[N+](C)(C)C
### Response 10.4

### Prompt Return growth, % of control at 1 µM (reported value) for this molecule: CCCCCCCCCCCCCCCC(=O)N(C)CC[N+](C)(C)C
### Response 26.8

====

Let's look at some compounds and their measured growth, % of control at 0.3 µM.
- Test system: HCT-15
- Protocol notes: Antiproliferative activity against human HCT15 cells at 0.3 uM by SRB assay
- Assay type: functional
Reply with just the number (in %).

### Prompt Lab note: record growth, % of control at 0.3 µM of CCCCCCCCCCCCCCCC(=O)N(C)CCC[N+](C)(C)CC tested on HCT-15.
### Response 98.3

### Prompt Lab note: record growth, % of control at 0.3 µM of C=CC[N+](C)(C)CC(C)(C)CNC(=O)CCCCCCCCCCCCCCCCC tested on HCT-15.
### Response 99.8

### Prompt Lab note: record growth, % of control at 0.3 µM of CCCCCCCCCCCCCCCCCC(=O)NCC(C)(C)C[N+](C)(C)CC tested on HCT-15.
### Response 96.7

### Prompt Lab note: record growth, % of control at 0.3 µM of CCCCCCCCCCCCCC(=O)NCC(C)(C)C[N+](C)(C)C tested on HCT-15.
### Response 101

### Prompt Lab note: record growth, % of control at 0.3 µM of CCCCCCCCCCCCCCCC(=O)N(C)CC[N+](C)(C)CC tested on HCT-15.
### Response 85.9

====

Let's look at some compounds and their measured growth, % of control at 0.1 µM.
- System: NCI-H23
- Protocol notes: Antiproliferative activity against human NCI-H23 cells at 0.1 uM by SRB assay
- Format: functional
Reply with just the number (in %).

Consider the following illustrative entries.
                           substance_smiles  test_value
0   CCCCCCCCCCCCCC(=O)NCC(C)(C)C[N+](C)(C)C         147
1  CCCCCCCCCCCCCCCCCC(=O)NCC(C)(C)C[N+](C)(C)Cc1ccccc1        93.4
2   CCCCCCCCCCCCCCCC(=O)N(C)CCC[N+](C)(C)CC         103
3    CCCCCCCCCCCCCCCC(=O)N(C)CC[N+](C)(C)CC        91.2
4  CCCCCCCCCCCCCC(=O)N(C)CCC[N+](C)(C)Cc1ccccc1          81
5  CCCCCCCCCCCCCCCCCC(=O)NCC(C)(C)C[N+](C)(C)C        97.1

### Prompt Return growth, % of control at 0.1 µM (reported value) for this compound: CCCCCCCCCCCCCC(=O)N(C)CC[N+](C)(C)C
### Response 99.8

### Prompt Return growth, % of control at 0.1 µM (reported value) for this compound: C=CC[N+](C)(C)CC(C)(C)CNC(=O)CCCCCCCCCCCCCCCCC
### Response 92.8

### Prompt Return growth, % of control at 0.1 µM (reported value) for this compound: CCCCCCCCCCCCCCCC(=O)N(C)CC[N+](CC)(CC)CC
### Response 84

### Prompt Return growth, % of control at 0.1 µM (reported value) for this compound: CCCCCCCCCCCCCCCC(=O)N(C)CC[N+](C)(C)C
### Response 101

### Prompt Return growth, % of control at 0.1 µM (reported value) for this compound: CCCCCCCCCCCCCC(=O)N(C)CCC[N+](C)(C)C
### Response 97.3

### Prompt Return growth, % of control at 0.1 µM (reported value) for this compound: CCCCCCCCCCCCCCCC(=O)N(C)CC[N+](CC)(CC)Cc1ccccc1
### Response 113

### Prompt Return growth, % of control at 0.1 µM (reported value) for this compound: CCCCCCCCCCCCCCCC(=O)N(C)CCC[N+](C)(C)Cc1ccccc1
### Response 85.2

====

- Tested on: NCI-H23
- Protocol notes: Antiproliferative activity against human NCI-H23 cells at 0.3 uM by SRB assay
- Assay type: functional
Kindly apply the following: True if growth, % of control at 0.3 µM is less than 90%, False in every other case.

Worked cases, answers included:
>>> print(df.to_string())
                           substance_smiles  answer_label
0  CCCCCCCCCCCCCCCCCC(=O)NCC(C)(C)C[N+](C)(C)Cc1ccccc1          True
1  CCCCCCCCCCCCCCCC(=O)NCC(C)(C)C[N+](C)(C)CC         False
2   C=CC[N+](C)(C)CCCN(C)C(=O)CCCCCCCCCCCCC          True
3    CCCCCCCCCCCCCCCC(=O)N(C)CC[N+](C)(C)CC          True

### Prompt Given the entry CCCCCCCCCCCCCCCCCC(=O)NCC(C)(C)C[N+](C)(C)CC , would its reported growth, % of control at 0.3 µM be below 90%?
### Response False

### Prompt Given the entry CCCCCCCCCCCCCCCC(=O)N(C)CC[N+](CC)(CC)Cc1ccccc1 , would its reported growth, % of control at 0.3 µM be below 90%?
### Response False

### Prompt Given the entry CCCCCCCCCCCCCC(=O)N(C)CC[N+](CC)(CC)CC , would its reported growth, % of control at 0.3 µM be below 90%?
### Response True

### Prompt Given the entry CCCCCCCCCCCCCCCC(=O)NCCC[N+](C)(C)C , would its reported growth, % of control at 0.3 µM be below 90%?
### Response False
